Biological target: T1, Soluble CDCP1 extracellular domain (CDCP1-ECD) (SEQ ID NO:30) fused to Streptavidin Binding Protein (SBP) (human, UniProt Q9H5V8 30-663)
T1 construct: also called SBP-CDCP1-ECD
T1 sequence: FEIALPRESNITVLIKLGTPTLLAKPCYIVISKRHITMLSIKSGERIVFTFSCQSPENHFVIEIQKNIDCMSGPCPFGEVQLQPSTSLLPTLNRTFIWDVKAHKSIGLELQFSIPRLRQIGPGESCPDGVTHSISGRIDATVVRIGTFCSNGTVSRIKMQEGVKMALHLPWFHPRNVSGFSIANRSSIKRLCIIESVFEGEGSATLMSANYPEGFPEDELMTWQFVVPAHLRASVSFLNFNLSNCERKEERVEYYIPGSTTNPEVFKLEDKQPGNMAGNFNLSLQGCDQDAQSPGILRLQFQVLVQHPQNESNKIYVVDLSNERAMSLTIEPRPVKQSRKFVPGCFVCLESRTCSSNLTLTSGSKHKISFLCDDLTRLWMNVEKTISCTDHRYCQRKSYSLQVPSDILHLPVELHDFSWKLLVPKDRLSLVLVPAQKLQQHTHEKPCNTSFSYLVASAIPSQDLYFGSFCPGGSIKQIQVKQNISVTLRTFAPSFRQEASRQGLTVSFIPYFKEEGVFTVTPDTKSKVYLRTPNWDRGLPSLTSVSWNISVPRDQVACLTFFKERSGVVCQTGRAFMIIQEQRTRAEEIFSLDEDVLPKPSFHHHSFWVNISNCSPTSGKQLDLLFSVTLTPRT
Experiment: ELISA on captured SBP-CDCP1-ECD, ratio relative to chimeric CUB4 (chHC4)
property.label: relative binding ratio
# print the numeric value only

{"binder": "hHC4-a / hLC4-L2 (antibody, V domains shown) VH: EVQLVESGGGLVKPGGSLRLSCAASGFTFNSYGMSWVRQAPGKGLEWVSTISSGGSYTYYPDSVKGRFTISRDNAKNSLYLQMNSLRAEDTAVYYCARHPDYDGVWFAYWGQGTLVTVSS VL: EIVLTQSPATLSLSPGERATMSCSVSSSVFYLHWYQQKPGQAPRLWIYDTSKLASGIPARFSGSGSGTDFTLTISSLEPEDFAVYYCQQWNSNPPTFGGGTKVEIK", "relative binding ratio": 0.58}
{"binder": "hHC4-07 / hLC4-J (antibody, V domains shown) VH: EVQLLESGGGLVQPGGSLRLSCAASGFTFNSYAMSWVRQAPGKGLEWVSTISSGGSYTYYPDSVKGRFTISRDNSKNTLYLQMNSLRAEDTAVYYCAKHPDYDGVWFAYWGQGTLVTVSS VL: EIVMTQSPATLSLSPGERATMSCRASSSVFYLHWYQQKPGQAPRLWIYDTSKLASGIPARFSGSGSGTDFTLTISSLQPEDFAVYYCQQWNSNPPTFGGGTKVEIK", "relative binding ratio": 0.07}
{"binder": "Humanized CUB4 Antibody No. 135 (antibody, IgG1, V domains shown, Human constant region, preferably IgG1; also called Antibody 135; hHC4-H / hLC-e) VH: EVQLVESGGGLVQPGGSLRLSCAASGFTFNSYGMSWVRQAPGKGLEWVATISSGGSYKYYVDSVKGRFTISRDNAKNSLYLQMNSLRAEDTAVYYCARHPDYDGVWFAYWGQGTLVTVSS VL: DIQMTQSPSSLSASVGDRVTITCSVSSSVFYVHWYQQKPGKAPKLLIYDTSKLASGVPSRFSGSGSGTDFTFTISSLQPEDIATYYCQQWNSNPPTFGGGTKVEIK", "relative binding ratio": 0.47}

What the record says about hHC4-d / hLC4-L (antibody, V domains shown) VH: EVQLLESGGGLVQPGGSLRLSCAASGFTFNSYGMSWVRQAPGKGLEWVSTISSGGSYTYYPDSVKGRFTISRDNSKNTLYLQMNSLRAEDTAVYYCAKHPDYDGVWFAYWGQGTLVTVSS VL: EIVLTQSPATLSLSPGERATMSCRASSSVFYLHWYQQKPGQAPRLWIYDTSKLASGIPARFSGSGSGTDFTLTISSLEPEDFAVYYCQQWNSNPPTFGGGTKVEIK : relative binding ratio is 0.56

What the record says about hHC4-d / hLC4-b (antibody, V domains shown) VH: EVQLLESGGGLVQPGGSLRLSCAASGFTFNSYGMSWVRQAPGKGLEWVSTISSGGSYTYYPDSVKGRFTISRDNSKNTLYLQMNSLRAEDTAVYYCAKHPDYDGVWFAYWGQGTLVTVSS VL: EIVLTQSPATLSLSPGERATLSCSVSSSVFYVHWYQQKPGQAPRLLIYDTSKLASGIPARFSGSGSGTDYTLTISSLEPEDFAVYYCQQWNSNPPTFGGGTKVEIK : relative binding ratio is 0.38
